Details: in isopentanol, 298.15 K

[
  {
    "chemicalString": "O=[N+]([O-])c1cccc2ccccc12",
    "solubility (mole fraction)": 0.032
  }
]

* * *

Conditions: in ethylene glycol, 298.15 K

[
  {
    "chemicalString": "O=[N+]([O-])c1cccc2ccccc12",
    "solubility (mole fraction)": 0.00463
  }
]

* * *

Details: in n-heptanol, 298.15 K

[
  {
    "chemicalString": "O=[N+]([O-])c1cccc2ccccc12",
    "solubility (mole fraction)": 0.0539
  }
]

* * *

Conditions: in n-butanol, 298.15 K

[
  {
    "chemicalString": "O=[N+]([O-])c1cccc2ccccc12",
    "solubility (mole fraction)": 0.0348
  }
]

* * *

Conditions: in cyclooctane, 298.15 K

[
  {
    "chemicalString": "O=[N+]([O-])c1cccc2ccccc12",
    "solubility (mole fraction)": 0.036
  }
]

* * *

Details: in n-decane, 298.15 K
quantityName: solubility (mole fraction)

[
  {
    "chemicalString": "O=[N+]([O-])c1cccc2ccccc12",
    "resultValue": 0.0274
  }
]

* * *

Conditions: in tert-butanol, 298.15 K

[
  {
    "chemicalString": "O=[N+]([O-])c1cccc2ccccc12",
    "solubility (mole fraction)": 0.0228
  }
]

* * *

Settings: in sec-butanol, 298.15 K

[
  {
    "chemicalString": "O=[N+]([O-])c1cccc2ccccc12",
    "solubility (mole fraction)": 0.0331
  }
]

* * *

Settings: in butyronitrile, 298.15 K

[
  {
    "chemicalString": "O=[N+]([O-])c1cccc2ccccc12",
    "solubility (mole fraction)": 0.383
  }
]

* * *

Details: in n-hexanol, 298.15 K

[
  {
    "chemicalString": "O=[N+]([O-])c1cccc2ccccc12",
    "solubility (mole fraction)": 0.0493
  }
]

* * *

Settings: in MTBE, 298.15 K

[
  {
    "chemicalString": "O=[N+]([O-])c1cccc2ccccc12",
    "solubility (mole fraction)": 0.214
  }
]

* * *

Details: in ethanol, 298.15 K

[
  {
    "chemicalString": "O=[N+]([O-])c1cccc2ccccc12",
    "solubility (mole fraction)": 0.0277
  }
]

* * *

Conditions: in n-nonane, 298.15 K
quantityName: solubility (mole fraction)

[
  {
    "chemicalString": "O=[N+]([O-])c1cccc2ccccc12",
    "resultValue": 0.0252
  }
]

* * *

Settings: in diethyl ether, 298.15 K

[
  {
    "chemicalString": "O=[N+]([O-])c1cccc2ccccc12",
    "solubility (mole fraction)": 0.237
  }
]

* * *

Conditions: in n-octanol, 298.15 K

[
  {
    "chemicalString": "O=[N+]([O-])c1cccc2ccccc12",
    "solubility (mole fraction)": 0.0593
  }
]

* * *

Conditions: in acetonitrile, 298.15 K

[
  {
    "chemicalString": "O=[N+]([O-])c1cccc2ccccc12",
    "solubility (mole fraction)": 0.328
  }
]

* * *

Details: in tert-butylcyclohexane, 298.15 K

[
  {
    "chemicalString": "O=[N+]([O-])c1cccc2ccccc12",
    "solubility (mole fraction)": 0.0303
  }
]

* * *

Details: in dibutyl ether, 298.15 K
quantityName: solubility (mole fraction)

[
  {
    "chemicalString": "O=[N+]([O-])c1cccc2ccccc12",
    "quantityName": "solubility (mole fraction)",
    "resultValue": 0.0996
  }
]

* * *

Settings: in n-heptane, 298.15 K

[
  {
    "chemicalString": "O=[N+]([O-])c1cccc2ccccc12",
    "solubility (mole fraction)": 0.0198
  }
]

* * *

Conditions: in cyclohexane, 298.15 K
quantityName: solubility (mole fraction)

[
  {
    "chemicalString": "O=[N+]([O-])c1cccc2ccccc12",
    "resultValue": 0.025
  }
]

* * *

Settings: in methylcyclohexane, 298.15 K
quantityName: solubility (mole fraction)

[
  {
    "chemicalString": "O=[N+]([O-])c1cccc2ccccc12",
    "resultValue": 0.0277
  }
]

* * *

Conditions: in diisopropyl ether, 298.15 K

[
  {
    "chemicalString": "O=[N+]([O-])c1cccc2ccccc12",
    "solubility (mole fraction)": 0.104
  }
]

* * *

Settings: in 2-methyl-1-butanol, 298.15 K
quantityName: solubility (mole fraction)

[
  {
    "chemicalString": "O=[N+]([O-])c1cccc2ccccc12",
    "resultValue": 0.0297
  }
]

* * *

Settings: in n-hexane, 298.15 K
quantityName: solubility (mole fraction)

[
  {
    "chemicalString": "O=[N+]([O-])c1cccc2ccccc12",
    "quantityName": "solubility (mole fraction)",
    "resultValue": 0.0174
  }
]

* * *

Conditions: in n-decanol, 298.15 K

[
  {
    "chemicalString": "O=[N+]([O-])c1cccc2ccccc12",
    "solubility (mole fraction)": 0.0666
  }
]

* * *

Conditions: in propionitrile, 298.15 K
quantityName: solubility (mole fraction)

[
  {
    "chemicalString": "O=[N+]([O-])c1cccc2ccccc12",
    "resultValue": 0.37
  }
]

* * *

Settings: in 4-methyl-2-pentanol, 298.15 K
quantityName: solubility (mole fraction)

[
  {
    "chemicalString": "O=[N+]([O-])c1cccc2ccccc12",
    "resultValue": 0.0311
  }
]

* * *

Details: in n-hexadecane, 298.15 K

[
  {
    "chemicalString": "O=[N+]([O-])c1cccc2ccccc12",
    "solubility (mole fraction)": 0.0394
  }
]

* * *

Conditions: in 2-methyl-1-pentanol, 298.15 K

[
  {
    "chemicalString": "O=[N+]([O-])c1cccc2ccccc12",
    "solubility (mole fraction)": 0.0367
  }
]

* * *

Settings: in n-octane, 298.15 K

[
  {
    "chemicalString": "O=[N+]([O-])c1cccc2ccccc12",
    "solubility (mole fraction)": 0.0223
  }
]

* * *

Settings: in isopropanol, 298.15 K

[
  {
    "chemicalString": "O=[N+]([O-])c1cccc2ccccc12",
    "solubility (mole fraction)": 0.0213
  }
]
